Test: UV absorbance spectrum in solution (λmax, λcrit, extinction coefficients)
Type: physicochemical
Conditions: molar extinction coefficient; in M-1 cm-1 (unit assumed)
Response field label takes TRUE when ε is strictly below 30000 and FALSE in all other cases.

Reference set, count: 7
> print(dat)
                                   compound    cat
1  CCCCC(CC)COC(=O)C(=O)/C(=C/N1CCc2cc(C(=O)OC)ccc21)c1ccccc1 (centres unmarked)  FALSE
2  CCOC(=O)C(=O)/C(=C/N(c1ccccc1)c1ccccc1)c1ccccc1   TRUE
3  CCN(/C=C(/C(=O)c1ccccc1OC)c1ccccc1)c1ccccc1   TRUE
4  COC(=O)c1ccc2c(c1)CCN2/C=C(/C(=O)c1ccccc1O[Si](C)(C)C(C)(C)C)c1ccccc1  FALSE
5  CN(C)C(=O)C(=O)/C(=C\N1CCc2ccccc21)c1ccccc1  FALSE
6  O=C(/C(=C(/c1ccccc1)N1CCCC1)c1ccccc1)C(F)(F)F   TRUE
7  CCCCC(CC)COC(=O)c1ccc2c(c1)CCN2C=C(C(=O)c1c(C)cc(C)cc1C)c1ccccc1 (centres unmarked)  FALSE

[in] In plain terms, does `O=C(/C(=C\N1CCc2cc(C(F)(F)F)ccc21)c1ccccc1)C(F)(F)F` come in under 30000 for ε?
[out] FALSE

###

Test: Photostability protocol: thin film irradiated with xenon arc lamp
Type: physicochemical
Conditions: 1 hour xenon arc lamp, ratio of absorbance at λmax irradiated vs unirradiated, ^a = average of multiple measurements
Label scheme for Photostability: lower than 80% is false, 80% and above is true.

Here are 5 compounds together with their reported answers.
> print(dat)
                      smiles.representation    cat
1  CCN(CC)C(=O)C(=O)/C(=C/N1CCc2cc(C(=O)OC)ccc21)c1ccccc1  false
2  CC(C)(C)OC(=O)C(=O)/C(=C/N1CCc2ccccc21)c1ccccc1  false
3  CCOC(=O)C(=O)/C(=C/N1CCc2cc(C(=O)OC)ccc21)c1ccccc1   true
4  O=C(/C(=C\N1CCc2ccccc21)c1ccccc1)C(F)(F)F   true
5  CCCCN(/C=C(/C(=O)C(F)(F)F)c1ccccc1)c1ccccc1   true

[in] Confirm if Photostability reported for the compound `COC(=O)c1ccc2c(c1)CCN2/C=C(/C(=O)C(=O)OC(C)(C)C(=O)OC)c1ccccc1` is 80% or above.
[out] false

###

Entries and their measured λmax follow.
Test: UV absorbance spectrum in solution (λmax, λcrit, extinction coefficients)
Type: physicochemical
Expressed in nm, but write only the number.

Example results:
> print(dat)
                                   compound  metric.name  observed.value
1              CCOC(=O)/C(=C\N(C)C)c1ccccc1         λmax             291
2  Cc1cc(C)c(C(=O)/C(=C/N2CCc3ccccc32)c2ccccc2)c(C)c1         λmax             355
3         CN(C)/C=C(/C(=O)c1ccccc1)c1ccccc1         λmax             313

Turning now to a further record.
[in] May I ask what λmax has been recorded for CC1CCc2ccccc2N1/C=C(\C(=O)C(F)(F)F)c1ccccc1 (stereo not shown) ?
[out] 350

###

Assay: UV absorbance spectrum in solution (λmax, λcrit, extinction coefficients)
Format: physicochemical
Conditions: molar extinction coefficient; in M-1 cm-1 (unit assumed)
Each record here notes measured ε.
Output: the number by itself.

> print(dat)
                                   compound  observed.value
1  COC(=O)c1ccc2c(c1)CCN2/C=C(/C(=O)C(=O)OC(C)(C)C(=O)OC)c1ccccc1 [Compound 279]           58842
2  CCN(/C=C(/C(=O)C(=O)N(C)C)c1ccccc1)CC [Compound 261]           23144
3  CCN(/C=C(\C(=O)C(=O)N(C)C)c1ccccc1)c1ccccc1 [Compound 259]           23336

[in] Which ε reading was recorded for the compound CN(C)S(=O)(=O)c1ccc(C(=O)/C(=C/N2CCc3ccccc32)c2ccccc2)cc1 [Compound 266] ?
[out] 23870

[in] GET /values?readout=ε&item= Cc1ccccc1N(/C=C(\C(=O)C(F)(F)F)c1ccccc1)c1ccccc1 [Compound 223]
[out] 25885

[in] Field request: ε | item: O=C(/C(=C\N(c1ccccc1)c1ccccc1)c1ccccc1)C(F)(F)F [Compound 143]
[out] 27893

###

# Breakthrough (1% T at 0.1%) per record follows
Test: % transmission spectrum of 0.1% solution (breakthrough, steepness)
Assay type: physicochemical
Details: value in nm where transmittance increases beyond 1%; 0.1% solution
Numbers only; they are read as nm.

Would you please look over these solved cases?
> print(dat)
                                   molecule  observed.value
1  O=C(/C(=C\N1CCc2cc(C(F)(F)F)ccc21)c1ccccc1)C(F)(F)F [Compound 235]             409
2  CCC(CC)(CC)OC(=O)/C(=C/N1CCc2cc(C(=O)OC)ccc21)c1ccccc1 [Compound 289]             381

[in] Which value of Breakthrough (1% T at 0.1%) has been reported for Cc1ccccc1C(=O)/C(=C/N(c1ccccc1)c1ccccc1)c1ccccc1 [Compound 250] in the records?
[out] 389

[in] Look at this molecule and give its reported Breakthrough (1% T at 0.1%). CN(C)C(=O)C(=O)/C(=C\N1CCc2ccccc21)c1ccccc1 [Compound 258]
[out] 409

[in] Need Breakthrough (1% T at 0.1%) of COC(=O)c1ccc2c(c1)CCN2/C=C(/C(=O)c1ccccc1)c1ccccc1 [Compound 247] , thanks.
[out] 422

[in] Query (molecule): CCCCC(CC)COC(=O)c1cccc(N(/C=C(/C(=O)C(F)(F)F)c2ccccc2)CC)c1 (centres unmarked) [Compound 232] ; field requested: Breakthrough (1% T at 0.1%)
[out] 373

[in] Which Breakthrough (1% T at 0.1%) value is on record for O=C(C(=O)N1CCc2ccccc21)/C(=C/N1CCc2ccccc21)c1ccccc1 [Compound 277] ?
[out] 414

[in] Request the reported Breakthrough (1% T at 0.1%) associated with COC(=O)c1ccc2c(c1)CCN2C=C(C(=O)c1c(C)cc(C)cc1C)c1ccccc1 [Compound 282]
[out] 402

[in] What value of Breakthrough (1% T at 0.1%) has been reported for the following molecule? CCCCC(CC)COC(=O)c1ccc2c(c1)CCN2/C=C(/C(=O)C(C)(C)C)c1ccc(Br)cc1 (centres unmarked) [Compound 309]
[out] 397

[in] Data request, read-out Breakthrough (1% T at 0.1%), for CCN(/C=C(/C(=O)c1ccccc1)c1ccccc1)CC [Compound 268]
[out] 374

[in] Form field: reported Breakthrough (1% T at 0.1%) of COC(=O)c1ccc2c(c1)CCN2/C=C(/C(=O)C(=O)Oc1ccccc1)c1ccccc1 [Compound 281]
[out] 419

[in] Which Breakthrough (1% T at 0.1%) value belongs to COC(=O)c1ccc2c(c1)CCN2/C=C(/C(=O)C(C)(C)C)c1ccccc1 [Compound 283] ?
[out] 401

[in] Please give the measured Breakthrough (1% T at 0.1%) for this molecule: CN(C)/C=C(/C(=O)c1ccccc1)c1ccccc1 [Compound 240]
[out] 379

[in] Item CC(C)(C)OC(=O)C(=O)/C(=C/N(c1ccccc1)c1ccccc1)c1ccccc1 [Compound 270] has what recorded Breakthrough (1% T at 0.1%)?
[out] 400

[in] Quick check: Breakthrough (1% T at 0.1%) of CCN(/C=C(\C(=O)C(F)(F)F)c1ccccc1)CC [Compound 144] ?
[out] 361

[in] Breakthrough (1% T at 0.1%) lookup needed for COC(=O)c1ccc2c(c1)CCN2/C=C(/C(=O)C(=O)OC(C)(C)C(=O)OC)c1ccccc1 [Compound 279] , thanks.
[out] 412

[in] Reported Breakthrough (1% T at 0.1%) for CCCCC(CC)COC(=O)C(=O)/C(=C/N1CCc2cc(C(=O)OC)ccc21)c1ccccc1 (centres unmarked) [Compound 278] : what is it?
[out] 418

###

Test: % transmission spectrum of 0.1% solution (breakthrough, steepness)
Format: physicochemical
Settings: value in nm where transmittance increases beyond 1%; 0.1% solution
Breakthrough (1% T at 0.1%) values, listed per item
Please reply with the bare figure in nm and do not write the unit itself.

Worked examples follow.
> print(dat)
                      smiles.representation  observed.value
1  CN(C)S(=O)(=O)c1ccc(C(=O)/C(=C/N2CCc3ccccc32)c2ccccc2)cc1             429
2  COC(=O)c1ccc2c(c1)CCN2/C=C(/C(=O)c1cccc(C)c1)c1ccccc1             423
3  COC(=O)c1ccc2c(c1)CCN2/C=C(\C(=O)C(F)(F)F)c1ccccc1             420
4  CN(C)S(=O)(=O)c1ccc(C(=O)/C(=C/N(c2ccccc2)c2ccccc2)c2ccccc2)cc1             418
5  Cc1ccc(C(=O)/C(=C/N2CCc3ccccc32)c2ccccc2)cc1             421
6  COc1ccccc1C(=O)/C(=C/N(c1ccccc1)c1ccccc1)c1ccccc1             398

[in] Could you tell me which Breakthrough (1% T at 0.1%) is on file for `Cc1cc(C)c(C(=O)/C(=C/N(c2ccccc2)c2ccccc2)c2ccccc2)c(C)c1` ?
[out] 383

[in] Name the reported Breakthrough (1% T at 0.1%) value associated with the compound `COC(=O)c1ccc2c(c1)CCN2/C=C(/C(=O)c1ccc(C(C)(C)C)cc1)c1ccccc1`
[out] 425
